assay_overview: NCI Yeast Anticancer Drug Screen. Data for the sgs1 mgt1 strain (AID 161);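 note: 0% = growth of cultures given vehicle only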
details: S. cerevisiae sgs1 mgt1 strain, at 50.0 µM (retest, dose inferred, filed as 5.0)
This is part of a sample that, as a whole, favours compounds with a hit. Of some 79,000 tested, about 15% had one in any assay. The source made the active and inactive calls. Cut-off read from the data, not from the text of the source: active = growth inhibition above about 70%; inactive = the rest.
Choose the fitting class; nothing outside 1 (active), 0 (inactive) is accepted.

Field: example entries. Status: answers known.
compound: O=c1c2ccccc2[se]n1-c1ccccc1
classification: 0

compound: O=[N+]([O-])c1cc([N+](=O)[O-])c(Cl)cc1F
classification: 1

compound: [Cl][Sn]([Cl])([c]1ccccc1)[c]1ccccc1.c1ccncc1.c1ccncc1
classification: 1

compound: CS(=O)(=O)[O-].CS(=O)(=O)[O-].NC1CCCCC1N.[Pt+4] (stereo not given)
classification: 1

compound: N=P(c1ccccc1)(c1ccccc1)c1ccccc1 (tested in a mixture with another compound)
classification: 0

compound: Oc1c(-c2ccccc2)cc(-[n+]2c(-c3ccccc3)cc(-c3ccccc3)cc2-c2ccccc2)cc1-c1ccccc1
classification: 1

compound: CCCCN(CCCC)CCc1ccc(OC(=O)c2ccc(N)cc2)cc1
classification: 1

compound: CCCCCCCCC(=O)[O][Hg][c]1ccccc1
classification: 1

Check the results log: what was the call for CC(=O)OC1C2(CC3N4C(=O)C5(CO)SSC4(CC31O)C(=O)N5C)OC(C)C(C)(C)C2=O (stereo not given) ?
1

Lab log entry: O=P(Nc1ccccc1)(Oc1ccccc1)N1CCN(c2ccccc2)CC1 (stereo not given) — outcome as called in the assay?
1

----------
assay_overview: NCI Yeast Anticancer Drug Screen. Data for the wt2 strain (AID 169);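 note: 0% = growth of vehicle-treated yeast cultures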
details: S. cerevisiae wt2 strain growth inhibition; at 100.0 µM; hits give high values
This is part of a sample that, as a whole, favours compounds with a hit. Of some 79,000 tested, about 15% had one in any assay.
So I've got a bunch of compounds here, and I need their growth inhibition values.
One number for each entry, in %.

Worked cases, answers included:
compound: C/C(=N\N=C(N)N)C(CN1CCOCC1)C(c1ccccc1)c1c(O)c2ccccc2oc1=O (stereo not drawn)
unit_descriptor: %
growth inhibition: 95

compound: O=[N+]([O-])O.[NH-]C1CCCCC1[NH-].[NH-]C1CCCCC1[NH-].[NH-]C1CCCCC1[NH-].[OH-].[OH-].[OH-].[Pt+4].[Pt+4].[Pt+4] (stereo not drawn)
unit_descriptor: %
growth inhibition: -36

Lab note: next compound to report on.
Find the measured growth inhibition of `CO[C@H](/C(C)=C/C=C/C(C)=C/c1coc(C)n1)[C@H](C)[C@H]1C[C@@H](O)[C@@]2(C)O[C@H]2/C=C/[C@@H](C)[C@@H]2C[C@@H](CC(=O)O2)C[C@H]2O[C@@H]2C(=O)O1` and report it.
92

----------
Field: growth inhibition. Provide a value for each of the molecules that follow.
assay_overview: NCI Yeast Anticancer Drug Screen. Data for the rad50 strain (AID 155);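 note: 0% = growth of vehicle-only cultures of the same strain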
details: S. cerevisiae rad50 strain growth inhibition; at 50.0 µM; hits give high values
The panel holds about 79,000 compounds, 15% with a hit somewhere; the sample as a whole holds those more often. The source made the active and inactive calls. No stated cut-off is given here; in the data, active means growth inhibition above about 70%; inactive means the rest.

In the examples that follow, each entry is paired with its recorded growth inhibition.
molecule: CCCCCCCC1(c2ccc(N)cc2)CCC(=O)NC1=O (configuration not stated)
growth inhibition: 73% (active)
--
molecule: O=C(c1ccccc1)c1c(CC(O)c2ccncc2)n(C(=O)c2ccccc2)c2ccccc12 (configuration not stated)
growth inhibition: 94% (active)
--
molecule: c1ccc(C[As+](c2ccccc2)(c2ccccc2)c2ccccc2)cc1
growth inhibition: 97.3% (active)
--
molecule: c1ccc2c3ccn4cc5c(cc4c-3nc2c1)CCCC5
growth inhibition: 86.9% (active)
--
molecule: O=C1C2CC(Cl)C(SSC3CC4C(=O)N(SC(Cl)(Cl)C(Cl)Cl)C(=O)C4CC3Cl)CC2C(=O)N1SC(Cl)(Cl)C(Cl)Cl (configuration not stated)
growth inhibition: 90.3% (active)
--
molecule: BrCc1ccc2ncccc2c1
growth inhibition: 98.5% (active)
--
molecule: C=C[C@H]1CN2CC[C@H]1C[C@@H]2[C@@H](O)c1ccnc2ccccc12
growth inhibition: -1.45% (inactive)
--
molecule: CC(C)O.CC(C)O.OCCN(CCO)CCO.OCCN(CCO)CCO.[Ti+2]
growth inhibition: 60% (inactive)

List growth inhibition for every entry below, keeping the order given.
1. CCCCCCCCCCCCNCCc1ccccc1
2. CCOC(=O)C(/N=N\c1nn[nH]n1)/N=N/c1ncn[nH]1 (configuration not stated)
3. N#C[S-].[Ce+3].c1ccc(-c2ccccn2)nc1.c1ccc(-c2ccccn2)nc1.c1ccc(-c2ccccn2)nc1
4. c1cc[c]([Pb]([c]2ccccc2)[c]2ccccc2)cc1.c1cc[c]([Pb]([c]2ccccc2)[c]2ccccc2)cc1
5. N#CC(Nc1c(N)nc(-c2ccccc2)nc1N)c1ccc(N(CCCl)CCCl)cc1 (configuration not stated)

1: 98.2% (active); 2: 97.7% (active); 3: 91.5% (active); 4: 99% (active); 5: 57.5% (inactive)

// batch mode: one growth inhibition value per listed entry
1. COc1ccc(C2N(Cc3ccc(N(CCCl)CCCl)cc3C)CCCN2Cc2ccc(N(CCCl)CCCl)cc2C)cc1
2. O=C1C=C(Cl)C(=O)C=C1Cl

1: 97.1% (active); 2: 99.2% (active)

Could you tell me growth inhibition for each of these molecules? They are listed below.
1. O=C(COc1ccc(Cl)cc1Cl)NO
2. c1ccc(C(C(=Nc2ccc(Cc3ccc(N=C(C(c4ccccc4)c4ccccc4)N4CC4)cc3)cc2)N2CC2)c2ccccc2)cc1
3. CN1CN(c2ccccc2)C2(CCN(C3Nc4ccccc4O3)CC2)C1=O (configuration not stated)
4. CC(=O)Oc1cccc2c1CC(C[Se]c1ccccc1)C(=O)O2 (configuration not stated)
5. COC1=C(C)C(=O)c2c(c(COC(N)=O)c3n2CC2C3N2C)C1=O (configuration not stated)
6. CCN(CC)CC(=O)O[C@]1(CC)C(=O)OCc2c1cc1n(c2=O)Cc2cc3ccccc3nc2-1
7. Nc1ccc2cc(Br)ccc2c1

96.5% (active)
85.6% (active)
40% (inactive)
69.9% (inactive)
93% (active)
83.2% (active)
75.5% (active)

Hello, the source for this data is PubChem BioAssay (NCI), in case you need it.
